src = ChEMBL document CHEMBL3991601

Target: Serine/threonine-protein kinase TAO3 (Homo sapiens); further: in the data inactive means no Kd found up to 30 µM
Sequence (Q9H2K8 whole entry): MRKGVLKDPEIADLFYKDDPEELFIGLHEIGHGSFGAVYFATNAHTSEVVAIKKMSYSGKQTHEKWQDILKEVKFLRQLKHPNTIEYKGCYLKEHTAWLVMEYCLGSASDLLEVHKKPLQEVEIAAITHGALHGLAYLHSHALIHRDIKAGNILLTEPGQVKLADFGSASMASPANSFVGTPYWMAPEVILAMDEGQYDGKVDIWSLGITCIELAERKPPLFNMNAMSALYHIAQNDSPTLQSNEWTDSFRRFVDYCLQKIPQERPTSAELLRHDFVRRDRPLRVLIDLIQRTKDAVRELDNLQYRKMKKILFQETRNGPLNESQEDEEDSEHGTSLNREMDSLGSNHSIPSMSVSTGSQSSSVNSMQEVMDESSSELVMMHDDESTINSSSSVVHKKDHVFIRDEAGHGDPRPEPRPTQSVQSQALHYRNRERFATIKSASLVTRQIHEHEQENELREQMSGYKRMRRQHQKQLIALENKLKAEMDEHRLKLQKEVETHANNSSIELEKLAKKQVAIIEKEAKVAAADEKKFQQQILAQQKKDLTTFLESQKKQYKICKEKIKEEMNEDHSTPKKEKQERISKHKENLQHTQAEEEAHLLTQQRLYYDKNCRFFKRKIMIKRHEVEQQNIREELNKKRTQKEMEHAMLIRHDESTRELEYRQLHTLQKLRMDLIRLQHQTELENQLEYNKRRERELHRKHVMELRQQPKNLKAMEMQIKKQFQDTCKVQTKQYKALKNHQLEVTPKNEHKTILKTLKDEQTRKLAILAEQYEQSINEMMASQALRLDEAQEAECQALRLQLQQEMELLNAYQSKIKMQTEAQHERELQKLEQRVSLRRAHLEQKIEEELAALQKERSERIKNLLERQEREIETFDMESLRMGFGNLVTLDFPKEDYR
The source made the active and inactive calls.
Outcomes: active, inactive

# smiles.input, label
rows = [
    ("CCN1CCN(Cc2ccc(Nc3ncc(F)c(-c4cc(F)c5nc(C)n(C(C)C)c5c4)n3)nc2)CC1", "active"),
    ("C[C@@H]1COC(Nc2ccc3ncnc(Nc4ccc(OCc5nccs5)c(Cl)c4)c3c2)=N1", "inactive"),
    ("COc1cc(F)c(F)c(Nc2ccc(I)cc2F)c1NS(=O)(=O)C1(C[C@H](O)CO)CC1", "inactive"),
]

* * *

Molecular target: Activin receptor type-1 (Homo sapiens, UniProt Q04771); further: in the data inactive means no Kd found up to 30 µM
Sequence (Q04771 whole entry): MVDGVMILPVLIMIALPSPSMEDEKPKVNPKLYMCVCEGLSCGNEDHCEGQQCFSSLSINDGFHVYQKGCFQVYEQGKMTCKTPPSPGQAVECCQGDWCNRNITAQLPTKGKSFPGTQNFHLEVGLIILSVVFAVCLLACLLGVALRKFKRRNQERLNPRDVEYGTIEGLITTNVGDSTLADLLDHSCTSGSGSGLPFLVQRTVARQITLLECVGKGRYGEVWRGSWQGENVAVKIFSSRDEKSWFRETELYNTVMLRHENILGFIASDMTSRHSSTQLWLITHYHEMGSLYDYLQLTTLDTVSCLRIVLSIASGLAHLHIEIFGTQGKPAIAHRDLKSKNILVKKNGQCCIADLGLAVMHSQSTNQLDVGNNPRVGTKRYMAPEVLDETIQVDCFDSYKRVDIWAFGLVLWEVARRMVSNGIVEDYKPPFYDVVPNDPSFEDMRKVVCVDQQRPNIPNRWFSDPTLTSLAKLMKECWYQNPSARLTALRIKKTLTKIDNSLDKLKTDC
Active and inactive are the calls of the source.
Outcomes: active, inactive

# compound, label
data = [
    ("Cc1cc(Nc2nc(N[C@@H](C)c3ncc(F)cn3)ncc2Cl)n[nH]1", "inactive"),
    ("c1cc(OCCN2CCCCC2)cc(-c2n[nH]c3ccc(-c4nc[nH]n4)cc23)c1", "inactive"),
    ("O=S(=O)(c1cccc2cnccc12)N1CCCNCC1", "inactive"),
    ("COc1cccc2cc(-c3nc([C@H]4CC[C@H](C(=O)O)CC4)n4ncnc(N)c34)[nH]c12", "inactive"),
    ("COc1cc2nccc(Oc3ccc(NC(=O)C4(C(=O)Nc5ccc(F)cc5)CC4)cc3)c2cc1OC [CABOZANTINIB]", "inactive"),
    ("FC(F)(F)c1ccc(CNc2ccc(Cc3c[nH]c4ncc(Cl)cc34)cn2)cn1", "inactive"),
    ("S=C(NCc1ccc2c(c1)OCO2)N1CCN(c2ncnc3c2oc2ccccc23)CC1", "inactive"),
    ("CCOc1ccn(-c2ccc(F)cc2)c(=O)c1C(=O)Nc1ccc(Oc2ccnc(N)c2Cl)c(F)c1", "inactive"),
    ("CCc1nc(C(N)=O)c(Nc2ccc(N3CCC(N4CCN(C)CC4)CC3)c(OC)c2)nc1NC1CCOCC1", "active"),
    ("O=C(O)c1ccc2c(c1)nc(Nc1cccc(Cl)c1)c1ccncc12", "inactive"),
]
